Entries and their growth yield values follow.
- System: Trichoderma virens ATCC 9645
- assay.summary: growth yield (OD600) with compound + IPBC relative to untreated control; higher = less growth inhibition
- measurement.setup: compound concentration: 100 uM; IPBC concentration: 200 ng/ml; 72 h
Structures can show the parent of a compound that is named as a salt. Out of some 1,300 compounds screened, about 130 (10%) showed an effect of 50% or more. The sample as a whole holds a higher share of strong results than the screen did.
# output: number + unit

// solved cases for growth yield follow
{"molecule": "CC[C@H]1OC(=O)[C@H](C)[C@@H](O[C@H]2C[C@@](C)(OC)[C@@H](O)[C@H](C)O2)[C@H](C)[C@@H](O[C@@H]2O[C@H](C)C[C@H](N(C)C)[C@H]2O)[C@](C)(O)C[C@@H](C)[C@@H]2N[C@@H](COCCOC)O[C@H]([C@H]2C)[C@]1(C)O [Dirithromycin] + CCCCNC(=O)OCC#CI [3-iodo-2-propynyl butylcarbamate (IPBC)]", "assayed.system": "Trichoderma virens ATCC 9645", "growth yield": "94.9%"}
{"molecule": "COC(=O)[C@@H]1[C@H]2C[C@H]3c4[nH]c5ccccc5c4CCN3C[C@@H]2CC[C@@H]1O [Yohimbine hydrochloride] + CCCCNC(=O)OCC#CI [3-iodo-2-propynyl butylcarbamate (IPBC)]", "assayed.system": "Trichoderma virens ATCC 9645", "growth yield": "89.2%"}
{"molecule": "CC(N/C(=N\\C#N)Nc1ccncc1)C(C)(C)C (stereo not drawn) [Pinacidil] + CCCCNC(=O)OCC#CI [3-iodo-2-propynyl butylcarbamate (IPBC)]", "assayed.system": "Trichoderma virens ATCC 9645", "growth yield": "102%"}
{"molecule": "CCN(CC)C(=S)SSC(=S)N(CC)CC [Disulfiram] + CCCCNC(=O)OCC#CI [3-iodo-2-propynyl butylcarbamate (IPBC)]", "assayed.system": "Trichoderma virens ATCC 9645", "growth yield": "92.4%"}

Q: Any idea what its growth yield is? The molecule is CO[C@@]1(NC(=O)C2SC(=C(C(N)=O)C(=O)O)S2)C(=O)N2C(C(=O)O)=C(CSc3nnnn3C)CS[C@@H]21 (stereo partly drawn) [Cefotetan] + CCCCNC(=O)OCC#CI [3-iodo-2-propynyl butylcarbamate (IPBC)]
A: 96.5%

Q: Which growth yield reading was recorded for the molecule CCOc1cc(CC(=O)N[C@@H](CC(C)C)c2ccccc2N2CCCCC2)ccc1C(=O)O [Repaglinide] + CCCCNC(=O)OCC#CI [3-iodo-2-propynyl butylcarbamate (IPBC)] ?
A: 104%

Q: Which growth yield is listed for CN(C)CCCSC(=N)N [Dimaprit dihydrochloride] + CCCCNC(=O)OCC#CI [3-iodo-2-propynyl butylcarbamate (IPBC)] ?
A: 95.8%

Q: # input molecule: CC1(C)O[C@@H]2C[C@H]3[C@@H]4CCC5=CC(=O)CC[C@]5(C)[C@@]4(F)[C@@H](O)C[C@]3(C)[C@]2(C(=O)CCl)O1 [Halcinonide] + CCCCNC(=O)OCC#CI [3-iodo-2-propynyl butylcarbamate (IPBC)] ; wanted: its growth yield
A: 91.8%

Q: growth yield lookup needed for CN(CCCCCCCCCCN(C)C(=O)Oc1cccc([N+](C)(C)C)c1)C(=O)Oc1cccc([N+](C)(C)C)c1 [Demecarium bromide] + CCCCNC(=O)OCC#CI [3-iodo-2-propynyl butylcarbamate (IPBC)] , thanks.
A: 2.73%

Q: Bench note: what growth yield did Nc1nc2c(ncn2COC(CO)CO)c(=O)[nH]1 [Ganciclovir] + CCCCNC(=O)OCC#CI [3-iodo-2-propynyl butylcarbamate (IPBC)] show?
A: 98.1%

Q: What measured growth yield goes with Nc1nc2c(ncn2COCCO)c(=O)[nH]1 [Acyclovir] + CCCCNC(=O)OCC#CI [3-iodo-2-propynyl butylcarbamate (IPBC)] ?
A: 101%
